Experiment: chemical genetic growth profiling, strain panel (AID 1159580);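 note: tested at 20 µM; growth read once vehicle control cultures reached saturation at 30 °C; 1 = growth at the plate median or of vehicle wells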
Conditions: S. cerevisiae deletion strains, growth OD, locus YJL187C, strain SWE1, stronger effect = lower value
About 2,000 (36%) of roughly 5,500 compounds were called active. About 18% were inconclusive and are not listed. Some of the results follow.
Hi there, I'd appreciate the recorded normalized growth for every entry that follows.
Give the figure by itself; no unit, no explanation.

Would you mind telling me what normalized growth value was observed for CC(=O)Oc1c2c(c(CC=C(C)C)c3c1C(=O)C1=C[C@@H]4CC5C(C)(C)OC(C/C=C(\C)C(=O)O)(C4=O)[C@@]15O3)OC(C)(CCC=C(C)C)C=C2 (stereo partly specified) ?
0.974

Again, but for COC(=O)[C@H](c1ccccc1Cl)N1CCc2sccc2C1
0.984

Same question for CCOC(=O)CNc1ccc(Cl)c(Cl)c1 please.
0.973

Again, but for O=S(=O)(NCCc1ccncc1)c1cc(C(F)(F)F)cc(C(F)(F)F)c1
1.01

Note, next up: NC(N)=NCCN1CCCCCCC1
1.04

Another: COc1ccc(-c2oc3cc(OC)c(OC)c(OC)c3c(=O)c2OC)cc1
0.98

Then what about the molecule CC(=O)O[C@H]1C[C@@]2(C)[C@@H](C[C@@H](O)C3[C@]2(C)CC[C@H]2[C@H](C)[C@H](O)CC[C@]32C)/C1=C(/CCC=C(C)C)C(=O)O (stereo partly specified) ?
1.04

Proceed to CC(=O)Oc1c2c(c3c(c1CC=C(C)C)O[C@]14C(=C[C@@H]5CC1C(C)(C)OC4(C/C=C(\C)C(=O)O)C5=O)C3=O)OC(C)(CCC=C(C)C)C=C2 (stereo partly specified)
0.972

# repeat for COC(=O)/C(C)=C\CC12OC(C)(C)C3CC(C=C4C(=O)c5c(OC)c6c(c(CC=C(C)C)c5OC431)OC(C)(CCC=C(C)C)C=C6)C2=O (stereo unspecified)
1.01

Also, NCCCNCCSP(=O)(O)O please.
0.982

Try COc1ccc(-c2oc3cc(OC)c(OC)c(OC)c3c(=O)c2OC)cc1OC next.
0.981

CN(C)CCC(c1ccccc1)c1ccccn1 (stereo unspecified) , same question.
1

Entry to check: CCCCCCCCCCCCCC(=O)OC1C(C)C2(O)C(C=C(CO)CC3(O)C(=O)C(C)=CC32)C2C(C)(C)C12OC(C)=O (stereo unspecified)
0.99

For C[C@]12C=CC(=O)C=C1CCC1C2[C@@H](O)C[C@@]2(C)C1CC[C@]2(O)C(=O)CO (stereo partly specified) then?
0.991

Try the molecule COC1C=CC23c4cc5c(cc4CN(CC2O)[C@@H]3C1)OCO5 (stereo partly specified)
0.957

// next record NC(N)=NCCCCN=C(N)N
1.01

---

Assay: chemical genetic growth profiling, strain panel (AID 1159580)
Details: S. cerevisiae deletion strains, growth OD, locus YOR265W, strain rbl2, stronger effect = lower value
In all, about 5,500 compounds went through this assay and about 2,000 (36%) were called active. About 18% were inconclusive and are not listed. The list shows a part of the results.
Please note: normalized growth exactly at 1 is False. Only values below 1 get True.

I wonder whether COc1ccc(-c2oc3cc(OC)c(OC)c(OC)c3c(=O)c2OC)cc1 has normalized growth below 1. Can you tell?
True

Try the compound CC1CCC(NC(=O)N(CCCl)N=O)CC1 (stereo unspecified)
True

For NC1(C(=O)O)CC1 then?
False

# repeat for O=NN(CCCl)C(=O)NCCCl
True

Could you do the same for COc1ccc2oc3ccccc3c(=O)c2c1 , please?
True

And Clc1ccc(C(c2ccccc2Cl)C(Cl)Cl)cc1 (stereo unspecified) ?
True

---

Experiment: chemical genetic growth profiling, strain panel (AID 1159580)
Settings: S. cerevisiae deletion strains, growth OD, strain TSCII, stronger effect = lower value
Hit rate of the full screen: of about 5,500 compounds, about 2,000 (36%) were called active. Not shown: some 18% with an inconclusive outcome. This is one part of the list.
experimentalEndpoint: normalized growth
Give a plain numeric answer without units written out.

Recorded normalized growth of Cc1c(S(=O)(=O)Nc2cccc([N+](=O)[O-])c2)sc2ccc(Cl)cc12 , please.
0.964

Now try O=S(=O)(NCc1ccc(C(F)(F)F)cc1)c1cc(Br)c(Br)s1 .
0.97

Subsequent entry: N#Cc1cccc(CSc2nc3ccc(C(F)(F)F)cc3[nH]2)c1
0.965

Then what about the compound N/C(=N/O)c1ccc(Oc2ccc(C3SCCS3)cc2)c([N+](=O)[O-])c1 ?
1.01

Now consider O=C(NNc1ccccc1)c1cc(-c2ccc(Cl)cc2)oc1C(F)(F)F .
0.95

Try the compound Cc1ccc(-c2nc(NS(=O)(=O)c3cccc4nonc34)sc2C)cc1Cl
0.956

Item: CNC(=O)Sc1c(-c2ccc(Cl)cc2)nn(C(=O)NC)c1SC
0.977

One more compound: CC(C)(C)C1=C(C#N)C(c2c(Cl)cccc2Cl)C(C#N)=C(N)O1 (stereo not given)
0.991

Query C/C(=N/NC(=S)NCC(C)(C)C)c1cc(F)cc(Cl)c1O next
0.956

Same read-out for O=C(Oc1ccc2ccccc2c1C1SCCS1)c1ccc([N+](=O)[O-])o1 ?
0.954

---

Assay: chemical genetic growth profiling, strain panel (AID 1159580)
Conditions: S. cerevisiae deletion strains, growth OD, strain NNK1
Screen size: about 5,500 compounds; about 2,000 (36%) were called active. Another 18% or so got no clear call; they are omitted. Rule as the data show it: active = normalized growth mostly below about 0.91 (no sharp cut-off); inconclusive = no clear call, values can overlap the other calls; inactive = mostly above about 0.92. The list shows a part of the results.
The reply should be one of these categories: y (active), n (inactive)

Fill in: this test's call for Brc1ccc(-c2csc(-c3cccnc3)n2)cc1 is ___
y

For N#CC(C#N)=Cc1c(-c2ccccc2Cl)[nH]c2ccccc12 then?
n

Next entry: O=S(=O)(NCc1ccc(C(F)(F)F)cc1)c1cc(Br)c(Br)s1
n

Quick one: Cc1ccc(-c2nc(NS(=O)(=O)c3cccc4nonc34)sc2C)cc1Cl
n

Another: O=S(=O)(NCc1ccc(C(F)(F)F)cc1)c1cccc(C(F)(F)F)c1
n

Now this one: C[C@@H](Nc1ncnc2sc3c(c12)CCCC3)c1ccccc1
n

And Clc1cc(Cl)cc(C=NCc2ccccc2)c1 ?
n

---

Assay: chemical genetic growth profiling, strain panel (AID 1159580);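 note: tested at 20 µM; growth read once vehicle control cultures reached saturation at 30 °C; 1 = growth at the plate median or of vehicle wells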
Details: S. cerevisiae deletion strains, growth OD, locus YOR231W, strain MKK1, stronger effect = lower value
Screen size: about 5,500 compounds; about 2,000 (36%) were called active. Inconclusive results (about 18%) are left out. The list shows a part of the results.
hey, just use condition met if measured normalized growth is less than 1, otherwise condition not met

Does Cc1c(S(=O)(=O)Nc2cccc([N+](=O)[O-])c2)sc2ccc(Cl)cc12 have normalized growth strictly under 1?
condition met

How about this compound: COc1ccc2oc(-c3ccccc3)c(OC)c(=O)c2c1
condition met

Further, for COc1cc(OC)c2c(=O)cc(-c3ccccc3)oc2c1 ?
condition met

Now consider N/C(=N/O)c1ccc(Oc2ccc(C3SCCS3)cc2)c([N+](=O)[O-])c1 .
condition not met

Request: COc1ccc(-c2oc3ccccc3c(=O)c2OC)cc1
condition met

Consider next the compound Nc1nc(F)nc2c1ncn2[C@@H]1O[C@H](COP(=O)(O)O)[C@@H](O)[C@@H]1O in the same way.
condition not met

---

Experiment: chemical genetic growth profiling, strain panel (AID 1159580);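 note: tested at 20 µM; growth read once vehicle control cultures reached saturation at 30 °C; 1 = growth at the plate median or of vehicle wells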
Settings: S. cerevisiae deletion strains, growth OD, locus YOR069W, strain VPS5, stronger effect = lower value
Screen size: about 5,500 compounds; about 2,000 (36%) were called active. Another 18% or so got no clear call; they are omitted. The list shows a part of the results.
Give measured normalized growth for each item. Keep answers brief.
Reply briefly: the number, and no unit.

Field request: normalized growth | item: C[C@]12CCC3c4ccc(OC(=O)CCC(=O)O)cc4CCC3C1CCC2=O (some centres undefined)
1

Do the same for C[C@]12CCC3c4ccc(O)cc4CCC3C1CCC2=O (some centres undefined) please
1

COP(=S)(OC)Oc1ccc([N+](=O)[O-])cc1 ?
0.994

Next compound up: CC(=O)OC1CC(O)C(C)(C)C2CC(=O)C3(C)C(CCC4(C)C(c5ccoc5)OC(=O)C5OC543)C12C (centres undefined)
0.985

---

Experiment: chemical genetic growth profiling, strain panel (AID 1159580);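 note: tested at 20 µM; growth read once vehicle control cultures reached saturation at 30 °C; 1 = growth at the plate median or of vehicle wells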
Settings: S. cerevisiae deletion strains, growth OD, locus YNL322C, strain KRE1, stronger effect = lower value
The whole screen tested about 5,500 compounds, of which about 2,000 (36%) were called active. Roughly 18% stayed inconclusive and do not appear here. Some of the results follow.
experimentalEndpoint: normalized growth
In your answer, state the number alone without any accompanying words.

I have this compound here, CCOC(=O)c1ccc(Oc2ccc(Cl)cc2Cl)c([N+](=O)[O-])c1 , and I need its recorded normalized growth.
1

Now consider NC(N)=NC(N)=Nc1ccccc1C(F)(F)F and answer again.
0.993

Now the compound NNC(=O)c1cnn(-c2ccc(Cl)cc2)c1C(F)(F)F
1

Same lookup for CN=C(N)NCCCC(N)C(=O)O (centres undefined) , please.
1.02

Proceed to C=C[C@@]1(C)CC(=O)[C@@]2(O)[C@](C)(O1)[C@@H](OC(C)=O)[C@@H](O)C1C(C)(C)CC[C@H](O)[C@@]12C (some centres undefined)
0.994

What do you get for Nc1ccc(CCNc2ncnc3c2ncn3C2OC(CO)C(O)C2O)cc1 (centres undefined) ?
0.995

Another compound to check: O=C(O)CCCCCCCC(=O)O
0.992

Follow-up item: COc1cscc1C(N)=O
0.996

Follow-up entry: Cc1ccccc1CNc1ncnc2c1ncn2C1OC(CO)C(O)C1O (centres undefined)
1.01

What about this compound? Clc1ccc(C(c2ccccc2Cl)C(Cl)Cl)cc1 (centres undefined)
1

// query: CCCN1CCC[C@@H]2Cc3[nH]ncc3C[C@H]21
1.01

Also check COC(=O)c1ccsc1N
0.992

Query Cc1nc(-c2ccc(-c3ccc(C(=O)N4CCc5cc6c(cc54)C4(CCN(C)CC4)CO6)cc3)c(C)c2)no1 next
0.64

For CCOC(=O)c1ccc(Oc2sccc2[N+](=O)[O-])cc1 then?
0.931

Same lookup for Cc1onc(-c2ccccc2Cl)c1C(=O)N1CCCN2C(=O)c3ccccc3C21 (centres undefined) , please.
1

And for Cc1ccccc1N1CCN(S(=O)(=O)C[C@]23CCC(CC2NC(=O)[C@@H](N)CCS(C)(=O)=O)C3(C)C)CC1 (some centres undefined) ?
0.99

What do we get for NCCCNCCSP(=O)(O)O ?
1

Follow-up item: O=C1CCc2cccc3cccc1c23
0.957

Similarly, Cc1nn(Cc2ccccc2Cl)c(=N)s1 ?
0.985

Moving on to COC1=CC(=O)OC(CCc2ccc(OC)c(OC)c2)C1 (centres undefined)
1.01

Now this one: FC(F)(F)Oc1ccccc1-c1nnc(-c2ccc(Cl)cc2)o1
0.944

Next record, please: CCOC(=O)c1cnn(-c2ccc(F)cc2)c1N
0.987

COc1ccc(NC(=O)c2ccc(-c3ccc(-c4noc(C)n4)cc3C)cc2)cc1N1CCN(C)CC1 ?
0.965

And what about the compound O=c1oc2ccccc2cc1[N+](=O)[O-] ?
0.0611

Data credit: PubChem BioAssay AID1159580
